Reported soluble fraction (log2) values for a set of sequences
experiment: soluble fraction after stress (log2 fold change); higher = more stays soluble; pooled small domains, quantitative proteomics; conditions: stress: 75 degC;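 further: 20 min heating vs room temperature control held 20 min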

| querySequence | soluble fraction (log2) |
| --- | --- |
| HMLTEERLQIITDTVNSRSSVTIAELSRILDVSPSTVKRDLNILAEAGKITKVRGGAIALGE | -0.285 |
| HMKQQAYEQGKAAYQSGDWLRAVTQLGQVKEAGEKNGEVDHLLGNAYMKLGQFESAAYAYNSALEDVA | 0.53 |
| HMRLGQLQSVEEPKFIEVHSGKQGDIGEQTIVEYEIDAKYATGDATINLKLLFRDGLFEIYNFNFSSEALL | 0.133 |
| HMNAKVVAPIPGTVLSIDIKVGDVIKIGDRLLVLEAMKMENNIASEKSGTVTAVHVKVGQQVLQNELMIEL | -2.17 |
| HMQNELAEARSQLAERKNIDQAKLILMKKRNISEPEAYKLLRSHAMQTNRRVAEVAESIITAESLLG | -0.0692 |
| HMFGDQMQSYLSRLSQIDVDIIALKYGDNFTYREIGLILEMSEDSVRQRAVRARKKLETMIQKG | -3.31 |
| HMDIKEIIKNRRIELGLTLKEVATAVGVSEGTVSRWESGNITNMKRNKIAALAKTLQIPPTTI | -0.618 |
| HMHKPLRILVYEELRMLIMTGQIKPGTRMMEIDLAESMGVSRTPVREAIRQLEKDNLVTIEPRRGAYVSD | -2.71 |
| HMDQHPYGEDSFRGDNPPAGFDIKGNEDSMKFHEPSSPWYGRTIAEVWFRSAAAAEAAGFVNAV | -0.0403 |
| HMNIAEIGQKVAQQRVALGISQERLAKLSDLSRSTIHHLEHGTLHEIGAAKLFKLLSLLDIQLK | -2.07 |
| HMSYTWHDMYLLAQEYQKEHGNLIIPRNYKGKNGLNLGYWLYKEKLKYRQGKLAPEKIIALEHIGIVWT | -1.25 |
| HMDINEIILKVASEKKTFKTSDVLEALDNNYTKQHVSALISAMVKKGILVKAGSTAKSTYALPENASLL | -1.26 |
| HMDAPKTGSLVVSKAVNYGSWSGFTFRLHGTSDKGNSVDVTATTGSDGKAYFKDIEIGTYTLEEVN | -0.406 |
| HMLYEDVQVPNVRYWKSRDAKKQLEDLGLRVLTEHVNDAYIQSDQVIRTSPEIGDTLRTGDTVTLYVSDG | 0.163 |
| HMIENITIELNKKALALDFELNKDLPEGVLETIPTLVSLMVRFDPLTVSYHFLRDYIDALLESNLNVDL | -0.0886 |
| HMSNENIDQDELQAIIQKVLASNQDAVAKYKAGKTAVIGFLIGQVMRQLNKKIDVALAKKTLLVFLEK | -1.42 |
| HMTTIAQMTGPQRAAVILLVLGEDHGRTIWQEFDDDEIRIITRAMAELGTVDADEVERLMLDFVGKLSS | -2.67 |

* * *

Reported soluble fraction (log2) values for a set of sequences
experiment: soluble fraction after stress (log2 fold change); higher = more stays soluble; pooled small domains, quantitative proteomics; details: stress: 75 degC
quantity: soluble fraction (log2)

| querySequence | measValue |
| --- | --- |
| HMTDTSFPRLGAPEEELLSFLAKWEIDAEDAHYTKFSLYYQSTGKMMRDWKATWRAWKERQSELNAQR | -2.33 |
| HMIPPGTITIEGAITKVPVFLDGKQIGTVPLTKEDVEPGKYRIRVLGVGRVITIDPGEKENVLFSGEDLGL | -0.0563 |
| HMNYKDQISRYFQQAFHIYPKYQTMKNEEGNFTSKIFKDDKMIIEGVGKSKKKAEQDVSRKALIHFNVL | -0.376 |
| HMVGEYTVKKGDTLWKIAGQTLGSPLRYAEIYELNKDVIEEAALGRGKKNSSNGHWIFQGTVLKIPA | -0.188 |
| HMGTTKGVVDVTVPNGRASQHVKLVVIDDDGGRVVYDGTNAPGDRIVKSVSGSGNVRVQIYLNNALVQEQS | -0.491 |
| HMPQNVSVPDVTNMTQAEAESKLKEKNLAVGNIIPELSTTVEKDKVTRTNPESGSNVRKNSKVDIYVSQG | 0.154 |
| HMGMETQLSPKEKSIYTIIQNRPNIQSGEVSEKLAIPLPTVKRILSDLINKGLIEKQGSGRNVSYTI | 0.338 |
| HMKALYNLDYEKPLSGSYYTETTARAAVPTDIRKLGLIITYKTDATTNITEQFVGSSISAWTTSGNWKSLG | -1.77 |

* * *

experiment: soluble fraction after stress (log2 fold change); higher = more stays soluble; pooled small domains, quantitative proteomics; settings: stress: 75 degC
quantity: soluble fraction (log2)

| querySequence | quantity | measValue |
| --- | --- | --- |
| HMAGTDLSERESEIAMLLLKGYPYKLIASRLYISESTVKSHVQNIYGKLGIHSRTELIEQFSAS | soluble fraction (log2) | -0.649 |
| HMSGLLTTSKLAQKHKMKTEPMLEKLTAAGYLEWRDDKHSLTEQGKKAGGQFKTGRFGAYFLWPEDLV | soluble fraction (log2) | -0.116 |
| HMSDPHEELMSRIARDLSIPLTRVVAEMNTIISKEFGGHIRPEGAVVILAKRSGVEFSDLLPALRENILK | soluble fraction (log2) | -1.92 |
| HMEESEMIAFATVAHRIVGKPVEAVMRSYRNRDNIPADIAAIVSSKFTFSVTMAEASYRNPKKSYQVNSII | soluble fraction (log2) | 0.275 |
| HMDIAATTVKQKIRTLLADEDAARPLSDQKIADALAEDGIDVARRTVAKYREELGIEPSWARKR | soluble fraction (log2) | 0.106 |
| HMNVSDIENKLNEMLSPLEKKVMVLYLEGKSYVEIGELLGRHTKSVDNALQRVKRKLEIYLKNRK | soluble fraction (log2) | -2.62 |
| HMSAPVFRITPAGVVVNGLKRSDILTLTRIDGAMNTLPHNAGEVLVSTEGLAKGVYVITAGGKSLKFLV | soluble fraction (log2) | -1.85 |
| HMNDADAHASVDAALKHLEALAETTPEVRAALELVRRGPDGRVTVDSFARVAEALREISIAVGAS | soluble fraction (log2) | 0.024 |

* * *

assay: soluble fraction after stress (log2 fold change); higher = more stays soluble; pooled small domains, quantitative proteomics; details: stress: 75 degC
quantity: soluble fraction (log2)

| querySequence | measValue |
| --- | --- |
| HMNIIHNPSKNFIESDLNDLKEGMEIEHKKFGYGLIKSIDKTQNHQKAVVNFKLVGEKTLLLSFARLRIV | -3.15 |
| HMHPRDREENKYLLLRGERIYEESIGEKRLYVEAALHKYEKALSSYDTGLIDEAKEEFKKFLEEIEEA | -0.271 |
| HMVPTVSVDRDDTLRFEGRPVDWDVLKRELGAVAGIDELKIYADAKVSALTVSKIMKSASEAGVLQFILVT | -0.0735 |
| HMLSDADLAAFREVFDLVDKDKSGAIEMEEVEELTKLLGLDLTRDEVELLVREIDKDGNGEVDFEEFLLVM | 0.00598 |
| HMEVSKETFPAYVAVDSLPVYKSASTSSSKVTTIDFGREVTVVETRGGWAKIQYGSYKGFAEIEGMSKN | -1.06 |
| HMSTRKAFVNGDGVRLRSGPGTNHSIRASLTKGQTVFVTGTKDGWASVSVQGGASGWVSADLLKYE | 0.59 |
| HMVKLQATPSQRKTLDELYVQLKKLEPTAKEDLSLLRRLENSHLVSKQEAQGLISKAIGRVGALAVEQQP | 0.0219 |
| HMKKQLKSEAVADELRRKILSGGFPDKRLPRKDELTEYFQVSQKTVEAALKMLTAEGLIRGVKGTGIFVNG | -0.703 |
| HMAQLPPTATARATSDVSGLTASAALRTLLEQGFVPQIHGSGKVSRQHPPAGTLLEPGSTIQLFLEPS | 0.261 |
| HMGGGVSSSLAGNVFKVLLPAGSVVEQGQAVIVLEAMKMETEVNAPKSGSVSSVFVNEGDTVEVGDLLFAI | -0.0461 |
| HMNVVDTGTDANYRVKISAVNLNMRLGPSTSYKSKGYITPGNYTIIKTSGDWGKVKETGYWVALKYTSKIN | -3.16 |
| HMDRESFIKLGRELARSAFAHVGQKSTEKALETAADVLRLKDPNEVLARLGSAELTGRQVVQAIYPELI | -0.277 |
| HMSNEVSYSDFVRSVESDEVNAVTLDGEQIRFVGNDGQTYSVIKPADAQITQLLIDNNVTVRAEQQ | 0.123 |
| HMAVQEDAGLAREDLPPEVQGLLQEREAARAAKDWGKSDALRRQLQDLGYAIKDTAQGMEIKRT | 0.817 |
| HMAAEFERKNGIVYFFHSSEKPHLNYPHVHARYGEDTISISLRDFTVIGSFSSKKKQKEAVEYVKNK | -0.829 |
| HMTNVIPKAMAPFNGSTIIADGIKNIKDHIDNLYITVGYKGATLSEHVINKGVSAVFNTTGKGNAWWVYN | 0.343 |
| HMPGEIKKIPINSISYQDLKQHPYFDAYLAKQVIKYRETKGRIENIEQFREATRAYQSLIEKVTPYLDFE | -0.302 |
| HMKSYTYNPNYLSDYNAYRLGIPLEALERLQLHRSTGRYVNSLSDFQSVTGISDSLKHSLSSSLRFPN | -1.36 |
| HMKVPDVQYMNKDSAIEALTANELKYTIVEAENENVAAGVVISQSVERDSQVAPGTSVELVVSTG | 0.212 |
| HMKIIDDIQEFAGVTKTQNTFFHIFNHLHQNGKQLILTSDRAPVMLQGMEERLLTRFKWGLVAELE | 0.285 |
| HMNTKHVFIIEQDDEKKRLDIFLVEKLQDSRSFLKKGIVEGWVKVNESVVKPNYKLKQKDQITVIIPP | -1.47 |
| HMALSVRNRMSDLLRMLGDGEFHRFENLFSLEEGRHGIVVTFLAMLELAKEQLVEISQGESLAPIYLKSLA | -1.05 |
| HMANYYEILGVKHDATEAEIKAAYKQAAKSAHPDAGGSNEKMQEVNAAWEVLGNAQKRAEYDARMA | 0.173 |
| HMFPDRLRELRKGRNITLETLAEEMNKHLEPGQKPNTAAQIGNWERGDRSPSYIEVRKLADFFNVSMDFL | -0.586 |
| HMSDYYEVLGVTRQADAEEIKRAYRRKARQLHPDVAGPGHEEEFKEVTVAYEVLSDPEKRQAYDLGGQDAL | 0.0155 |
| HMSVSEAELAEKYHADDLEALKSGKLHEFQENLIDRNGKKYTVQTMKDILTLSDGTRLLLGIGLD | 0.131 |
| HMMVIMRANATEPQIANVVAYVEKNGLNAHLSRGAERTVIGVVGDIRRVSKETFELMDGVDSVMRIS | -0.631 |
| HMVLVKFEWTPPDARILVDDHPVEARDKEMELPEGTHHVQALAPRGSGYESTVTDIEVRQGMDPVRIAL | -0.292 |
| HMTNVLSEQESKLLERMNKAGLNAEITVKKAAQILNLSESAARNVLNRLVGKGYLTVDTSRLPFLFQR | -0.277 |
| HMRIWTISDLYKNVEDKKVSLAVFSEDNDSNKVNVLDINGEEHSVNLLKADLPTLVDLFRKNDVRFAVRSN | -0.116 |
| HMYSNDEIVNYLKNYIFDNFNLNELSDEELEEKIAELVQQQFAGQLLSLDEKVKLVNQVYSSIR | -0.0578 |
| HMAFKDDDVQKAYDRYMDRYGELSVLYSDNGLKVDDDLFYKNNIPPNGKFTKEFFDELYELVNMEFINNY | -0.173 |
| HMGMAGILDSARMASFIQEKLGYGGGQIRASVMGGHGDDMVPLPRYSTVAGVPLSDVLTQNEIDEMFAQ | -0.0337 |
